These measurements were taken from PubChem BioAssay AID2060498.

Tested on: 171881-019-R-J1-PDC tumor spheroids, viability
Assay: Anticancer human tumor 171881-019-R-J1-PDC patient-derived invasive breast carcinoma cell line growth inhibition [GQUAD]
Settings: second compound 0.1 µM; first compound 3.16 µM; hits give low values; spheroids with HUVEC and MSC
Property: viability, T/C; scope: individual molecules
Respond with the bare value in %.

Example entries begin here.
C=CC(=O)N1CCN(c2nc(=O)n(-c3c(C)ccnc3C(C)C)c3nc(-c4c(O)cccc4F)c(F)cc23)C(C)C1 (stereo not drawn) + Cc1[nH]c2ccc(F)cc2c1-c1nc2c3cccnc3c3ncccc3c2[nH]1
87.9
C#Cc1c(F)ccc2cc(O)cc(-c3ncc4c(N5CC6CCC(C5)N6)nc(OCC56CCCN5CC(F)C6)nc4c3F)c12 (stereo not drawn) + Cc1[nH]c2ccc(F)cc2c1-c1nc2c3cccnc3c3ncccc3c2[nH]1
25.1
O=C(c1cc(Cc2n[nH]c(=O)c3ccccc23)ccc1F)N1CCN(C(=O)C2CC2)CC1 + Cc1[nH]c2ccc(F)cc2c1-c1nc2c3cccnc3c3ncccc3c2[nH]1
89.1
CCCS(=O)(=O)Nc1ccc(F)c(C(=O)c2c[nH]c3ncc(-c4ccc(Cl)cc4)cc23)c1F + Cc1cnc(CNC(=O)c2c(=O)c3ccc(N4CCCN(C)CC4)nc3n3c2sc2ccccc23)cn1
92.2
COc1ccc([C@@H](O)c2cc(-c3ncnc4cc(N5CCOCC5)ccc34)c(F)cc2Cl)nn1 + CN(C)c1ccc(Nc2c3ccc(NC(=O)CCN4CCCC4)cc3nc3cc(NC(=O)CCN4CCCC4)ccc23)cc1
7.17

I am curious: what viability, T/C value has been reported for O=C(c1cc(Cc2n[nH]c(=O)c3ccccc23)ccc1F)N1CCN(C(=O)C2CC2)CC1 + Cc1cnc(CNC(=O)c2c(=O)c3ccc(N4CCCN(C)CC4)nc3n3c2sc2ccccc23)cn1 ?
64.1

What do we get for COc1ncnc(C2CC2)c1-c1ncc2cnn(Cc3ccc(-c4nc(C(F)(F)F)cn4C(C)C)cc3)c2n1 + Cc1cnc(CNC(=O)c2c(=O)c3ccc(N4CCCN(C)CC4)nc3n3c2sc2ccccc23)cn1 ?
73.9

What do we get for O=C(NO)c1cnc(N2CCN(S(=O)(=O)c3ccc4ccccc4c3)CC2)nc1 + Cc1[nH]c2ccc(F)cc2c1-c1nc2c3cccnc3c3ncccc3c2[nH]1 ?
0.09

----------
System: 171881-019-R-J1-PDC tumor spheroids, viability
Assay: Anticancer human tumor 171881-019-R-J1-PDC cell line growth inhibition [GQUAD];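 further: spheroids exposed to compounds for 7 days; 100% = DMSO vehicle control viability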
Settings: second compound 1 µM; first compound 0.00316 µM; hits give low values; spheroids with HUVEC and MSC
Text: DNA G-quadruplex Stabilizer Agents in Combinations in Complex Spheroids A high-throughput screen of multi-cell type tumor spheroids was designed to identify active combinations of DNA G-quadruplex stabilizer agents and targeted small molecules. […] Compounds. […] If the clinical Cmax for an agent had not been determined, the highest concentration tested was 10 microM. […]
Field 'label' (enum: met / not met). Set to met when viability, T/C is strictly under 60%; else not met.

Would you please look over these solved cases?
CC[C@@]1(O)C(=O)OCc2c1cc1n(c2=O)Cc2cc3c(CN(C)C)c(O)ccc3nc2-1 + Cc1[nH]c2ccc(F)cc2c1-c1nc2c3cccnc3c3ncccc3c2[nH]1
not met
CC[C@@]1(O)C(=O)OCc2c1cc1n(c2=O)Cc2cc3c(CN(C)C)c(O)ccc3nc2-1 + Cc1cnc(CNC(=O)c2c(=O)c3ccc(N4CCCN(C)CC4)nc3n3c2sc2ccccc23)cn1
not met
CCc1c2c(nc3ccc(O)cc13)-c1cc3c(c(=O)n1C2)COC(=O)[C@]3(O)CC + CN(C)c1ccc(Nc2c3ccc(NC(=O)CCN4CCCC4)cc3nc3cc(NC(=O)CCN4CCCC4)ccc23)cc1
met
Cc1[nH]c2ccccc2c1CCNCc1ccc(/C=C/C(=O)NO)cc1 + Cc1[nH]c2ccc(F)cc2c1-c1nc2c3cccnc3c3ncccc3c2[nH]1
met

Now take the following molecule into account.
Here's an entry: CC[C@@]1(O)C(=O)OCc2c1cc1n(c2=O)Cc2cc3c(CN(C)C)c(O)ccc3nc2-1 + CN(C)c1ccc(Nc2c3ccc(NC(=O)CCN4CCCC4)cc3nc3cc(NC(=O)CCN4CCCC4)ccc23)cc1 . Is its viability, T/C below 60%?
met
